- testName: Stability of compounds in human blood plasma
- Assay type: in vitro ADME
Numbered stars: 1 amine (or outer) side, 2 acyl side, 3 side chain; on linkers, the order of the positions; unused ones are H or OH. Square brackets hold non-standard residues; d marks the D form. Peptide text beside a SMILES is read from it. * marks the point of attachment. ξ: configuration not given here. Gly(1-amidinopiperidin-4-yl) = N=C(N)N1CCC([C@H](N)C(=O)O)CC1; X1 = CC(C)c1oc([C@H](CO)N[*:1])nc1C(=O)[*:2]; Pro(3R-Ph) = O=C(O)[C@H]1NCC[C@@H]1c1ccccc1; Tic = O=C(O)[C@@H]1Cc2ccccc2CN1; Cha = N[C@@H](CC1CCCCC1)C(=O)O; ξDisc = O=C(O)C1NCc2ccccc21; Nle = CCCC[C@H](N)C(=O)O; X2 = OCCOCCN(Cc1ccccc1)*; X6 = OCCN(CCc1ccccc1)*; NHBn = c1ccc(CN*)cc1
# key: entry, value: Stability (Arbitrary units) Human 24 h
Only the number, expressed in Arbitrary units, is required.

Before answering, review these 5 worked examples.
molecule	unitInfo	reportedMeasurement
CSCC[C@H](NC(=O)[C@@H]1Cc2ccccc2CN1C(=O)[C@@H](NC(=O)[C@H](CC1CCCCC1)NC(C)=O)C1CCN(C(=N)N)CC1)C(=O)N1CC[C@H](c2ccccc2)[C@H]1C(N)=O [Compound P80, Ac-Cha-Gpg-Tic-Met-βPhProNH2] (Ac-[Cha][Gly(1-amidinopiperidin-4-yl)][Tic]M[Pro(3R-Ph)]-NH2)	Arbitrary units	134
CSCC[C@H](NC(=O)C1c2ccccc2CN1C(=O)[C@H](CCCNC(=N)N)NC(=O)[C@H](CC1CCCCC1)NC(C)=O)C(=O)N1CC[C@H](c2ccccc2)[C@H]1C(=O)N[C@@H](CO)c1nc(C(=O)N(C)C)c(C(C)C)o1 (stereo partly drawn) [Compound P40-1] (Ac-[Cha]R[ξDisc]M[Pro(3R-Ph)][X1]-NMe2)	Arbitrary units	103
CCCC[C@H](NC(=O)C1c2ccccc2CN1C(=O)[C@@H](NC(=O)[C@H](CC1CCCCC1)NC(C)=O)C1CCN(C(=N)N)CC1)C(=O)N(C)Cc1ccccc1 (single isomer, unassigned) [Compound P76-1, Ac-Cha-Gpg-Disc-Nle-N(Me)Bn]	Arbitrary units	107
CCCC[C@H](NC(=O)[C@@H]1Cc2ccccc2CN1C(=O)[C@@H](NC(=O)[C@H](CC1CCCCC1)NC(C)=O)C1CCN(C(=N)N)CC1)C(=O)NCc1ccccc1 [Compound P68, Ac-Cha-Gpg-Tic-Nle-N(H)Bn] (Ac-[Cha][Gly(1-amidinopiperidin-4-yl)][Tic][Nle]-NHBn)	Arbitrary units	39
CCCC[C@H](NC(=O)[C@@H]1Cc2ccccc2CN1C(=O)[C@H](CCCNC(=N)N)NC(=O)[C@H](CC1CCCCC1)NC(C)=O)C(=O)N(CCO)CCc1ccccc1 [Compound P81, Ac-Cha-Arg-Tic-Nle-N(CH2CH2OH)CH2CH2Ph] (Ac-[Cha]R[Tic][Nle]-X6)	Arbitrary units	109

INPUT: Which measured Stability (Arbitrary units) Human 24 h value corresponds to CCCC[C@H](NC(=O)C1c2ccccc2CN1C(=O)[C@@H](NC(=O)[C@H](CC1CCCCC1)NC(C)=O)C1CCN(C(=N)N)CC1)C(=O)N(C)Cc1ccccc1 (single isomer, unassigned) [Compound P78-1] ?
OUTPUT: 107

INPUT: Proceed to CSCC[C@H](NC(=O)[C@@H]1Cc2ccccc2CN1C(=O)[C@@H](NC(=O)[C@H](CC1CCCCC1)NC(C)=O)C1CCN(C(=N)N)CC1)C(N)=O [Compound P67, Ac-Cha-Gpg-Tic-Met-NH2] (Ac-[Cha][Gly(1-amidinopiperidin-4-yl)][Tic]M-NH2)
OUTPUT: 100

INPUT: Proceed to CCCC[C@H](NC(=O)[C@@H]1Cc2ccccc2CN1C(=O)[C@H](CCCNC(=N)N)NC(=O)[C@H](CC1CCCCC1)NC(C)=O)C(=O)N1CC[C@H](c2ccccc2)[C@H]1C(=O)N[C@@H](CO)c1nc(C(=O)N(C)C)c(C(C)C)o1 [Compound P51] (Ac-[Cha]R[Tic][Nle][Pro(3R-Ph)][X1]-NMe2)
OUTPUT: 129

INPUT: Proceed to CCCC[C@H](NC(=O)[C@@H]1Cc2ccccc2CN1C(=O)[C@@H](NC(=O)[C@H](CC1CCCCC1)NC(C)=O)C1CCN(C(=N)N)CC1)C(=O)N(CCOCCO)Cc1ccccc1 [Compound P101, Ac-Cha-Gpg-Tic-Nle-N(Bn)CH2CH2OCH2CH2OH] (Ac-[Cha][Gly(1-amidinopiperidin-4-yl)][Tic][Nle]-X2)
OUTPUT: 107
